Molecular target: human Edg-1 (S1P1) (Homo sapiens, UniProt P21453)
Construct: expressed in transfected cells; host or cells: HEK-293
Sequence (P21453 whole entry): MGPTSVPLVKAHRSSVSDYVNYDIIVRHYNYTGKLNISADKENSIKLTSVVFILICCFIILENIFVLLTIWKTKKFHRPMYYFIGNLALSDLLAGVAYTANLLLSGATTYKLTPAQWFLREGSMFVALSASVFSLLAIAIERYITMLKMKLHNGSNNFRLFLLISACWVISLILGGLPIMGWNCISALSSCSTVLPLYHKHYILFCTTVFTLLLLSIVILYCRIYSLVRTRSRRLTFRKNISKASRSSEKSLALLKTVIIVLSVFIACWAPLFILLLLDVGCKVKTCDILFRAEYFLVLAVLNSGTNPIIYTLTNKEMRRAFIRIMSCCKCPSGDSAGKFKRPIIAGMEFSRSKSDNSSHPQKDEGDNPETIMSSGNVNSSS
Experiment: S1P1 binding inhibition test (membrane, [33P]-S1P)
Conditions: membrane system binding test, various concentrations
Recorded IC50, one value per entry.

molecule	assayedSystem	reportedRelation	IC50 (nM)
CCn1c(C(C)NS(=O)(=O)c2ccc3c(Cl)cccc3c2)cnc1Oc1ccc(F)cc1 (stereo not drawn)	human Edg-1 (S1P1) (Homo sapiens, UniProt P21453)	≤	35
CCn1c(C(C)NS(=O)(=O)c2ccc(Cl)c(Cl)c2)cnc1Oc1cccc(NC(C)=O)c1 (stereo not drawn)	human Edg-1 (S1P1) (Homo sapiens, UniProt P21453)	≤	70
CCn1c(C(C)NS(=O)(=O)c2ccc(Cl)c(Cl)c2)cnc1Oc1ccc(Cl)cc1 (stereo not drawn)	human Edg-1 (S1P1) (Homo sapiens, UniProt P21453)	≤	70
CCn1c(C(C)NS(=O)(=O)c2ccc3c(c2)CCC3)cnc1Oc1cccc(N2CCN(C)CC2)c1 (stereo not drawn)	human Edg-1 (S1P1) (Homo sapiens, UniProt P21453)	=	32.5
CCn1c(C(C)NS(=O)(=O)c2ccc(Cl)c(Cl)c2)cnc1Oc1ccc2ccncc2c1 (stereo not drawn)	human Edg-1 (S1P1) (Homo sapiens, UniProt P21453)	=	49
CCn1c(C(C)NS(=O)(=O)c2ccc(Cl)c(Cl)c2)cnc1OCCCCCCN(C)C (stereo not drawn)	human Edg-1 (S1P1) (Homo sapiens, UniProt P21453)	=	58.5

* * *

Target: human Edg-1 (S1P1) (Homo sapiens, UniProt P21453)
Construct: expressed in transfected cells; host or cells: HEK-293
Assay: S1P1 binding inhibition test (membrane, [33P]-S1P)
Conditions: compound 10 μM; [33P]-S1P 0.1 nM; human Edg-1 (S1P1) HEK-293 membrane fraction; read-out: Binding test (membrane) % inhibition (10 μM)

compound	readingUnit	inhibition at 10 µM
CCn1c(C(Cc2ccccc2)NS(=O)(=O)c2ccc3c(Cl)cccc3c2)cnc1Oc1ccc(F)cc1 (centres unmarked)	%	93
CCn1c(C(C)NS(=O)(=O)c2cccc(Cl)c2Cl)cnc1Oc1ccc(C)cc1 (centres unmarked)	%	101
CCn1c(C(C)NS(=O)(=O)c2ccc(Br)cc2Br)cnc1Oc1ccc(C)cc1 (centres unmarked)	%	77.8
CCc1nc(Oc2ccc(F)cc2)n(CC)c1C(C)NS(=O)(=O)c1ccc(Cl)c(Cl)c1 (centres unmarked)	%	98.9
CCn1c(C(C)NS(=O)(=O)c2ccc(Cl)c(Cl)c2)cnc1Oc1cccc(N2CCN(C)CC2)c1 (centres unmarked)	%	95.3
CCOc1ncc(C(C)NS(=O)(=O)c2ccc(Cl)c(Cl)c2)n1CC (centres unmarked)	%	83.2
CCn1c(C(C)NS(=O)(=O)c2cccc(Cl)c2C)cnc1Oc1ccc(C)cc1 (centres unmarked)	%	96.7
CCn1c(C(C)NS(=O)(=O)c2ccc(OC(F)F)cc2)cnc1Oc1ccc(C)cc1 (centres unmarked)	%	78.2

* * *

Biological target: human Edg-1 (S1P1) (Homo sapiens)
Construct: expressed in transfected cells; host or cells: HEK-293
Assay: S1P1 binding inhibition test (membrane, [33P]-S1P)
Conditions: compound 10 μM; [33P]-S1P 0.1 nM; human Edg-1 (S1P1) HEK-293 membrane fraction; read-out: Binding test (membrane) % inhibition (10 μM)
Lab note: anything with inhibition at 10 µM at or over 90% counts as label 1; the rest go in label 0.

molecule	categoryLabel
CCn1c(C(C)NS(=O)(=O)c2ccc(Cl)c(Cl)c2)cnc1Oc1cc(C(F)(F)F)n(C)n1 (centres unmarked)	label 1
CCn1c(C(C)NS(=O)(=O)c2ccc(F)c(F)c2F)cnc1Oc1ccc(C)cc1 (centres unmarked)	label 0
CCn1c(C(C)NS(=O)(=O)c2ccc(Br)cc2)cnc1Oc1ccc(C)cc1 (centres unmarked)	label 1
CCCCCCC(NS(=O)(=O)c1ccc(Cl)c(Cl)c1)c1cnc(Oc2ccc(F)cc2)n1CC (centres unmarked)	label 0
CCn1c(C(C)NS(=O)(=O)c2cc(F)c(F)c(F)c2)cnc1Oc1ccc(C)cc1 (centres unmarked)	label 1
CCn1c(C(C)NS(=O)(=O)c2cc(C(F)(F)F)cc(C(F)(F)F)c2)cnc1Oc1ccc(C)cc1 (centres unmarked)	label 0
CCn1c(C(C)NS(=O)(=O)c2ccc(OC)c(OC)c2)cnc1Oc1ccc(C)cc1 (centres unmarked)	label 0
CCn1c(C(C)NS(=O)(=O)c2cccc(Br)c2)cnc1Oc1ccc(C)cc1 (centres unmarked)	label 1
CCn1c(C(C)NS(=O)(=O)c2cc(C)cc(C)c2)cnc1Oc1ccc(C)cc1 (centres unmarked)	label 1
CCn1c(C(C)NS(=O)(=O)c2ccccc2C)cnc1Oc1ccc(C)cc1 (centres unmarked)	label 0
CCn1c(C(C)NS(=O)(=O)CCc2cccc3ccccc23)cnc1Oc1ccc(C)cc1 (centres unmarked)	label 0
CCn1c(C(C)NS(=O)(=O)c2cc(C)c(Cl)cc2Cl)cnc1Oc1ccc(C)cc1 (centres unmarked)	label 1
CCn1c(C(C)NS(=O)(=O)c2ccc(C)c(F)c2)cnc1Oc1ccc(C)cc1 (centres unmarked)	label 1
CCn1c(C(Cc2ccc(C)cc2)NS(=O)(=O)c2ccc3c(Cl)cccc3c2)cnc1Oc1ccc(F)cc1 (centres unmarked)	label 1
CCn1c(C(C)NS(=O)(=O)c2ccc3c(Cl)ccc(Cl)c3c2)cnc1Oc1cccc(N2CCN(C)CC2)c1 (centres unmarked)	label 1
CCn1c(C(C)NS(=O)(=O)c2ccc(OC)cc2)cnc1Oc1ccc(C)cc1 (centres unmarked)	label 1
CCn1c(C(C)NS(=O)(=O)c2ccc(C)c(Cl)c2)cnc1Oc1ccc(C)cc1 (centres unmarked)	label 1
CCn1c(C(C)NS(=O)(=O)c2cc3ccccc3s2)cnc1Oc1ccc(C)cc1 (centres unmarked)	label 0
CCn1c(C(C)NS(=O)(=O)c2cccc(OC(F)F)c2)cnc1Oc1ccc(C)cc1 (centres unmarked)	label 0
CC[C@H](NS(=O)(=O)c1ccc(Cl)c(Cl)c1)c1cnc(Oc2ccc(F)cc2)n1CC	label 0
CCn1c(C(C)NS(=O)(=O)c2cc(Cl)cc(Cl)c2)cnc1Oc1ccc(C)cc1 (centres unmarked)	label 1
CCn1c(Oc2ccc(F)cc2)nc(C)c1C(C)NS(=O)(=O)c1ccc(Cl)c(Cl)c1 (centres unmarked)	label 1
CCn1c(C(C)NS(=O)(=O)c2cc(Cl)ccc2OC)cnc1Oc1ccc(C)cc1 (centres unmarked)	label 0
CCn1c(C(C)NS(=O)(=O)c2cccc(C#N)c2)cnc1Oc1ccc(C)cc1 (centres unmarked)	label 0
CCn1c(C(C)NS(=O)(=O)c2ccc(Cl)c(Cl)c2)cnc1Oc1cc(C)nc(C)c1 (centres unmarked)	label 1
CCn1c(C(C)NS(=O)(=O)c2cccc(F)c2)cnc1Oc1ccc(C)cc1 (centres unmarked)	label 0
CCn1c(C(C)NS(=O)(=O)c2ccc3c(c2)CCC3)cnc1Oc1cccc(N2CCN(C)CC2)c1 (centres unmarked)	label 1
CCn1c(C(C)NS(=O)(=O)c2c(F)cc(F)cc2Br)cnc1Oc1ccc(C)cc1 (centres unmarked)	label 0
CCn1c(C(C)NS(=O)(=O)c2c(Cl)cc(Cl)cc2Cl)cnc1Oc1ccc(C)cc1 (centres unmarked)	label 0

Hey, just so you know, these numbers are from patent US7994204B2.
